- Test system: HepG2
- assay text: cytotoxicity call (relative viability < 0.9)
- setup conditions: 10 µM
The campaign covered roughly 39,000 compounds. About 3,300 (8.5%) were called active. This is one part of a sample in which actives are shown more often than they occur.
API: response.call in active, inactive

Record excerpt, results attached:
C[C@H](CO)N1C[C@H](C)[C@@H](CN(C)Cc2ccc(Oc3ccccc3)cc2)Oc2c(NC(=O)c3nc4ccccc4s3)cccc2C1=O	active
C[C@H]1CN([C@@H](C)CO)C(=O)c2cccc(NC(=O)c3nc4ccccc4s3)c2O[C@@H]1CN(C)Cc1ccc(Oc2ccccc2)cc1	inactive
C[C@H](CO)N1C[C@H](C)[C@H](CN(C)C(=O)Nc2ccc(C(F)(F)F)cc2)OCCCC[C@H](C)Oc2ccc(NC(=O)Nc3cccc4ccccc34)cc2C1=O	inactive
C[C@H]1CN([C@@H](C)CO)C(=O)c2cccc(NC(=O)c3nc4ccccc4s3)c2O[C@H]1CN(C)Cc1ccc(Oc2ccccc2)cc1	active
C[C@H]1CN([C@@H](C)CO)C(=O)Cc2cc(NC(=O)Cc3cn(C)c4ccccc34)ccc2O[C@H]1CN(C)Cc1ccc(C(F)(F)F)cc1	active

Next up:
Hello, I am checking results. What call was entered for `C[C@@H]1CN([C@H](C)CO)C(=O)c2cccc(NC(=O)c3nc4ccccc4s3)c2O[C@H]1CN(C)Cc1ccc(Oc2ccccc2)cc1` ?
inactive
